Target: Alpha-2C adrenergic receptor (Homo sapiens); further: assay procedure not described here
Sequence (P18825 whole entry): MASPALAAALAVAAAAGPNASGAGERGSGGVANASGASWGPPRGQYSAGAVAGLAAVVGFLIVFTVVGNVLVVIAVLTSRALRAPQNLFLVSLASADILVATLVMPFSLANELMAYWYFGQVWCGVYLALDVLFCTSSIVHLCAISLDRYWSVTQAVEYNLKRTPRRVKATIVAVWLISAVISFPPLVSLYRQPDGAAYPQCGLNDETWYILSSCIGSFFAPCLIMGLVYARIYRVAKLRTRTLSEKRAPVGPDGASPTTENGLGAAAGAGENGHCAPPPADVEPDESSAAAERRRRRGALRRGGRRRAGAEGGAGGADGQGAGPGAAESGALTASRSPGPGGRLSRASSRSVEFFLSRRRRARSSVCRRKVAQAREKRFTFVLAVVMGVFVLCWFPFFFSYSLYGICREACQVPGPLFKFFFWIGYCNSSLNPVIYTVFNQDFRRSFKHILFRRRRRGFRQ
Assay type: functional
Where a SMILES comes first, the peptide text is derived from it. [ ]: non-standard residue; d: D form. pGlu = O=C1CC[C@@H](C(=O)O)N1; Thz = O=C(O)[C@@H]1CSCN1
Each entry below carries its reported AC50.

Please review the following examples before continuing.
CCOc1nc2cccc(C(=O)O)c2n1Cc1ccc(-c2ccccc2-c2nnn[nH]2)cc1: > 30 µM
C[C@]12CCC(=O)C[C@@H]1CC[C@@H]1[C@@H]2CC[C@]2(C)[C@@H](O)CC[C@@H]12: > 30 µM
CCOC(=O)[C@@H](N)Cc1ccc(-c2cc(O[C@H](c3ccc(Cl)cc3-n3ccc(C)n3)C(F)(F)F)nc(N)n2)cc1: 22 µM

Query string: I am curious: what AC50 value has been reported for CCCCCCCN(CC)CCCC(O)c1ccc(NS(C)(=O)=O)cc1 (stereo not given) [IBUTILIDE] ?
Result string: 3.2 µM

Query string: Data request, read-out AC50, for O=C1CC[C@@H](C(=O)N2CSC[C@H]2C(=O)O)N1 [PIDOTIMOD] ([pGlu]-[Thz]-OH)
Result string: > 30 µM

Query string: Need AC50, item CC(C(=O)O)c1ccc2c(c1)CC(=O)c1ccccc1S2 (stereo not given)
Result string: > 30 µM

Query string: Reported AC50 for "CC(C)C[C@H](NC(=O)[C@@H](O)[C@H](N)Cc1ccccc1)C(=O)O" : what is it?
Result string: > 30 µM

Query string: Using the record for "CC(C)N(CCCCOCC(=O)O)c1cnc(-c2ccccc2)c(-c2ccccc2)n1" , report its AC50.
Result string: > 30 µM
